molecular target: Protein arginine N-methyltransferase 5 (Homo sapiens); experiment: iochemical Assay: Compounds of the invention may be tested for in vitro activity in the following assay: A histone H4 derived peptide is used as substrate (amino acid sequence: […]NH2). Full-length PRMT5 enzyme (NCBI Reference sequence NP-006100.2) was co-expressed with Hiss-MEP50 in insect cells and purified via Nickel immobilized metal affinity and gel filtration chromatograph.The 6 μL assay reactions are run in Greiner brand black 384-well low volume plates. All reactions contained assay buffer (phosphate buffered saline, 0.01% (v/v) Tween-20, 0.01% (w/v) albumin from chicken egg white, 1 mM dithiothreitol, 200 nM peptide substrate, 1 μM S-Adenosyl methionine, and 15 ng/reaction enzyme, with the enzyme being omitted from negative control reactions. Compounds were added in a volume of 100 nL from dilution series prepared in DMSO, positive and negative control reactions receiving the same volume DMSO without compound. The plates were sealed with adhesive seals and incubated for 4 hours at 37° C. Reaction progress was measured using the Transcreener™ EPIGEN methyltransferase assay (BellBrook Labs, Madison, Wis.) as recommended by the manufacturer. To each reaction 2 μL detection mix were added, containing coupling enzymes, fluorescence polarisation tracer, and AMP antibody. Plates were incubated for 90 min before being read on a PerkinElmer EnVision™ plate reader in fluorescence polarisation mode. IC50 values were obtained from the raw readings by calculating percent inhibition (% I) for each reaction relative to controls on the same plate (% I=(I−CN)/(CP−CN) where CN/CP are the averages of the negative/positive reactions, respectively), then fitting the % I data vs. compound concentration [I] to % I=(A+((B−A)/(1+((C/[I])^D)))) where A is the lower asymptote, B is the upper asymptote, C is the IC50 value, and D is the slope.
Sequence (O14744 whole entry): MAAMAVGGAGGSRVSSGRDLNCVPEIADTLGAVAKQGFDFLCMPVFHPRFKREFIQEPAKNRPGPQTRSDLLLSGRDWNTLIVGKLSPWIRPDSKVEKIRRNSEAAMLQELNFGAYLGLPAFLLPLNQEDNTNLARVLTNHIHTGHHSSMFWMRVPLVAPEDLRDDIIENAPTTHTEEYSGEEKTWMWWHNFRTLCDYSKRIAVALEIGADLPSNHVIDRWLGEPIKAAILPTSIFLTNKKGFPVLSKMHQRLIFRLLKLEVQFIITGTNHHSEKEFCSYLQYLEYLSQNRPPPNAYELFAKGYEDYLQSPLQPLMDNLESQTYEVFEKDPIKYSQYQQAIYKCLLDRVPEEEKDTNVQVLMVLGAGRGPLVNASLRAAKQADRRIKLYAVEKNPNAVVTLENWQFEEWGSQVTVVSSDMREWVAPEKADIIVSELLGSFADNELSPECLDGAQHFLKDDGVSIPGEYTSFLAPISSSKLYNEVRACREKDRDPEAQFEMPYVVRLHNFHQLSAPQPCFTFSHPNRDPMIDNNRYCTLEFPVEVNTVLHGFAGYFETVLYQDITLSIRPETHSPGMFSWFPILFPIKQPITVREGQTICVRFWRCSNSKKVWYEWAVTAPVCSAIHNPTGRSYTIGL
parameter: pIC50
Convention used: pIC50 is expressed as -log10 of the molar concentration.

INSERT INTO measurements (molecule, numeric_result) VALUES
  ('CNC(=O)c1cccc(C(=O)NC[C@@H](O)CNC2Cc3ccccc3C2)c1', 4.50);

Now look at this entry.
What pIC50 appears in the records for this compound with Protein arginine N-methyltransferase 5 (Homo sapiens)? `COc1ccc(-c2cc(C(=O)NC[C@H](O)CNC3Cc4ccccc4C3)on2)cc1` 5.61

Origin of values: ChEMBL document CHEMBL5727145
